system: BICR78 (Oral Cavity Carcinoma); assay: combination Emax (second highest fraction inhibited in the dose matrix, 72 h); higher = more inhibition; extreme values may be limits of the assay
Entries annotated with measured combination Emax
# output: bare number, no unit

Known combination Emax results, listed for orientation:
MOLECULE	combination Emax
CC1(C)CCC(CN2CCN(c3ccc(C(=O)NS(=O)(=O)c4ccc(NCC5CCOCC5)c([N+](=O)[O-])c4)c(Oc4cnc5[nH]ccc5c4)c3)CC2)=C(c2ccc(Cl)cc2)C1 [Venetoclax] + Cn1cnc2c(F)c(Nc3ccc(Br)cc3Cl)c(C(=O)NOCCO)cc21 [Selumetinib] (first compound max 1 µM, 7x7, partner max 3 µM)	0.323
COc1nnc2ccc(N3CCC(c4ccc(OCCN5CCN(C)C(=O)[C@H]5C)cc4)CC3)nn12 [AZD5153] + C[C@@H]1COCCN1C2=NC(=NC(=C2)C3(CC3)[S@](=N)(=O)C)C4=C5C=CNC5=NC=C4 [AZD6738] (first compound max 1 µM, 7x7, partner max 10 µM)	0.636

Switching to the query record.
Ask: Report combination Emax for CCc1c2c(nc3ccc(O)cc13)-c1cc3c(c(=O)n1C2)COC(=O)[C@]3(O)CC [SN-38] + O=C(c1cc(Cc2n[nH]c(=O)c3ccccc23)ccc1F)N1CCN(C(=O)C2CC2)CC1 [Olaparib] (first compound max 0.3 µM, 7x7, partner max 10 µM)
Reply: 0.786
